We begin with a simple list: items and their reported emission maximum.
assay-protocol: solvent given as SMILES
condition-notes: in CO

molecule: O=C1c2ccccc2-c2ccc(N3CCOCC3)c3cccc1c23
emission maximum, nm: 661
//
molecule: Nc1ccc2ccc3cccc4ccc1c2c34
emission maximum, nm: 428
//
molecule: Cc1ccc(O)c(-c2[nH]c(=O)n3c2-c2ccccc2C3=O)c1
emission maximum, nm: 500
//
molecule: O=S(=O)([O-])c1ccc(O)c2ccccc12
emission maximum, nm: 361
//
molecule: CCOC(=O)CCCn1c(C(=O)OC)c(C)c2c(=O)n3c(cc21)C(CC)=C(C)C3=O
emission maximum, nm: 499
//
molecule: C/C(=C\c1ccc(Cl)cc1)c1nc2ccccc2s1
emission maximum, nm: 400
//
molecule: CN(C)c1ccc(/C=C/C=C/C2=NC3C(=O)NC(N)=NC3N2[C@H]2C[C@H](O)[C@@H](CO)O2)cc1 (stereo not given in full)
emission maximum, nm: 438
//
molecule: CN(C)c1ccc(/C=C(\C#N)c2nc3ccccc3s2)cc1
emission maximum, nm: 520
//
molecule: C[N+]1=C(/C=C/C2=C3Oc4c(cc5c6c4CCCN6CCC5)C(c4ccccc4C(=O)O)=C3CCC2)C(C)(C)c2c1ccc1ccccc21
emission maximum, nm: 768
//
molecule: C#CCN1C(=O)/C(=C/c2cc(OC(C)C)ccc2OC(C)C)N=C1C
emission maximum, nm: 538
//
molecule: Cc1ccc(/C=N/c2cc(C(C)C)c(O)cc2C)cc1
emission maximum, nm: 422
//
molecule: Cn1cc(/C=C/C(=O)c2ccccc2)c2ccccc21
emission maximum, nm: 446.19
//
molecule: O=c1ccc2cc3c(cc2o1)OCC3
emission maximum, nm: 405
//
molecule: c1ccc(-c2cc(-c3ccc4ccc5cccc6ccc3c4c56)ccn2)nc1
emission maximum, nm: 438
//
molecule: COc1cc2c(cc1/C=C/C(=C(C#N)C#N)c1ccccc1)c1ccccc1n2C
emission maximum, nm: 575
//
molecule: CCN(CC)c1ccc(C2=C3C(C)=CC(C)=[N+]3[B-](F)(F)n3c(C)cc(C)c32)cc1
emission maximum, nm: 513
//
molecule: Cc1cc(O)c(-c2[nH]c(=O)n3c2-c2ccccc2C3=O)cc1Cl
emission maximum, nm: 496
//
molecule: COCCN(CCOC)c1ccc(/C=C/c2sc3c4nc(C)sc4ccc3[n+]2C)cc1
emission maximum, nm: 601
//
molecule: COc1ccccc1-c1nc(-c2ccccc2)c(-c2ccccc2)[nH]1
emission maximum, nm: 375
//
molecule: Cc1cc(C)c(B(c2cc(-c3ccc(N(C)C)cc3)sc2-c2sc(-c3ccc(N(C)C)cc3)cc2P(=O)(c2ccccc2)c2ccccc2)c2c(C)cc(C)cc2C)c(C)c1
emission maximum, nm: 645
//
molecule: O=C(/C=C/c1cn(-c2ccccc2)nc1-c1ccccc1)c1c(O)c2ccccc2oc1=O
emission maximum, nm: 504
//
molecule: CC1=C2C=CC=[N+]2[B-](F)(F)n2cccc21
emission maximum, nm: 503
//
molecule: C1=CC2=Nc3cccc[n+]3CN2C=C1
emission maximum, nm: 448
//
molecule: N[C@@H](Cn1nnc2cc(-c3ccc4ccccc4c3)ccc21)C(=O)O
emission maximum, nm: 417
//
molecule: Fc1ccc(-c2cc3c4c(c2)CCc2cc(-c5ccc(F)cc5)cc(c2-4)CC3)cc1
emission maximum, nm: 375.1
//
molecule: COc1ccc(OC)c(-c2[nH]c(=O)n3c2-c2ccccc2C3=O)c1
emission maximum, nm: 484
//
molecule: O=C1c2ccccc2-c2ccc(N3CCN(c4ccccc4)CC3)c3cccc1c23
emission maximum, nm: 577
//
molecule: COc1ccc(C2=C3C=CC(C)=[N+]3[B-](F)(F)n3c(C)ccc32)cc1
emission maximum, nm: 518
//
molecule: COc1c2ccccc2c(OC)c2c1c1ccc(F)cc1n2C
emission maximum, nm: 410
//
molecule: CN(C)/C=N\c1ccc2c3c(cccc13)C(=O)c1ccccc1-2
emission maximum, nm: 638
//
molecule: O=S(=O)([O-])CCCCN1C=C/C(=C/C=C/C=C/c2cc[n+](CCCCS(=O)(=O)[O-])c3ccccc23)c2ccccc21
emission maximum, nm: 830
//
molecule: CCc1ccc(/C=N/c2cc(C(C)C)c(O)cc2C)cc1
emission maximum, nm: 428
//
molecule: CCCSc1ccc2n1[B-](F)(F)[N+]1=C(SC#N)C=CC1=C2c1ccccc1
emission maximum, nm: 563
//
molecule: c1ccc(-c2cc(-c3ccc(N(c4ccccc4)c4ccccc4)cc3)cc(-c3ccccc3)n2)cc1
emission maximum, nm: 524
//
molecule: CCOC(=O)CCCCCn1c2ccccc2c(=O)c2cc(I)ccc21
emission maximum, nm: 430
//
molecule: CC1(C)C(/C=C/C2=C(Oc3ccc(CCN=C=S)cc3F)C(=C/C=C3/N(CCCS(=O)(=O)[O-])c4ccccc4C3(C)C)/CCC2)=[N+](CCCS(=O)(=O)[O-])c2ccccc21
emission maximum, nm: 797
//
molecule: Oc1ccc(/N=C/c2ccccc2Oc2ccccc2)cc1
emission maximum, nm: 415
//
molecule: COC(=O)COc1ccc(/C=C/C2=[N+]3C(=C(c4ccccc4)c4c(C)cc(C)n4[B-]3(F)F)C(C)=C2)cc1
emission maximum, nm: 574
//
molecule: CCCN1/C(=C/C=C(/C=C/C2=[N+](CCC)c3ccccc3C2(C)C)c2ccncc2)C(C)(C)c2ccccc21
emission maximum, nm: 648
//
molecule: F[B-]1(F)n2cccc2C=C2c3ccccc3C(c3ccc[nH]3)=[N+]21
emission maximum, nm: 592
